Tested on: melanoma cells
Experiment: Cell viability assay (Cell Titer-Glo), inhibitor alone or with Cisplatin
Type: cell-based
Run parameters: inhibitor (1.25-50 μM) with Cisplatin at 20 μM, 24 hours, Cell Titer-Glo, 3 independent experiments; read-out: IC50 (CisPt)
Response field label takes condition met when IC50 is strictly below 30 µM and condition not met in all other cases.

Clc1ccc(Nc2cc(-c3cccnc3)nc(C3CCCNC3)n2)cc1 (stereo not drawn) [Compound 2]	condition met
COc1ccc(Nc2cc(-c3ccccc3)nc(C3CCOCC3)n2)cc1 [Compound 17]	condition not met
Clc1ccc(Nc2cc(-c3ccccc3)nc(C3CCCNC3)n2)cc1 (stereo not drawn) [Compound 4]	condition met
COc1ccc(Nc2cc(-c3ccccc3)nc(C3CCNCC3)n2)cc1 [Compound 13]	condition not met

Next up:
// query Answer whether the molecule COc1cccc(Nc2cc(-c3ccccc3)nc(C3CCCNC3)n2)c1 (stereo not drawn) [Compound 11] has IC50 strictly less than 30 µM
// result condition met

###

I'd be grateful if you could share measured pIC50 for these entries.
Tested on: melanoma cells
Experiment: Cell viability assay (Cell Titer-Glo), inhibitor alone or with Cisplatin
Format: cell-based
Run parameters: inhibitor (1.25-50 μM) with Cisplatin at 20 μM, 24 hours, Cell Titer-Glo, 3 independent experiments; read-out: IC50 (CisPt)
One number for each entry, as −log10 of the molar value.

Clc1ccc(Nc2cc(-c3ccccn3)nc(C3CCCNC3)n2)cc1 (stereo not shown) [Compound 3]	4.42
CN(C)c1cccc(Nc2cc(-c3ccccc3)nc(C3CCNCC3)n2)c1 [Compound 14]	4.76
Fc1ccc(-c2cc(Nc3ccccc3)nc(C3CCCNC3)n2)cc1 (stereo not shown) [Compound 7]	4.49
Clc1cccc(Nc2cc(-c3ccncc3)nc(C3CCCNC3)n2)c1 (stereo not shown) [Compound 5]	4.37

Batch lookup, pIC50 per entry.
1. COc1ccc(-c2cc(Nc3ccc(Cl)cc3)nc(C3CCCNC3)n2)cc1 (stereo not shown) [Compound 6]
2. CN(C)c1ccc(Nc2cc(-c3ccccc3)nc(C3CCCNC3)n2)cc1 (stereo not shown) [Compound 8]
3. COc1cccc(Nc2cc(-c3ccccc3)nc(C3CCNCC3)n2)c1 [Compound 15]
4. Clc1ccc(Nc2cc(-c3ccncc3)nc(C3CCCNC3)n2)cc1 (stereo not shown) [Compound 1]

// result
4.77
4.50
4.65
4.89

// data source = patent US12503456B2
